# System: Neisseria gonorrhoeae, GC525 (NG-2888)
measured metric: MIC

{"columns": ["entry smiles", "result"],
 "data": [
  ["CCNC(=O)Nc1cn2ccc(C(C)=O)cc2n1", "64 µg/mL"],
  ["CCNC(=O)Nc1cn2c(C(=O)OC)cc(-c3cccnc3)cc2n1", "0.5 µg/mL"],
  ["CCOC(=O)Nc1cn2cnc(-c3cccnc3)cc2n1", "> 64 µg/mL"],
  ["CCNC(=O)Nc1cn2ccc(-c3ccc(OC)nc3)cc2n1", "16 µg/mL"],
  ["CCNC(=O)Nc1cn2ccc(-c3noc(C)n3)cc2n1", "> 64 µg/mL"],
  ["CCNC(=O)Nc1cn2ccc(-c3cccnc3)cc2n1", "16 µg/mL"],
  ["CCNC(=O)Nc1cn2ccc(-c3cnc(N(C)C)nc3)cc2n1", "16 µg/mL"],
  ["CCNC(=O)Nc1cn2c(-c3ncccn3)cc(-c3cnc(N(C)C)nc3)cc2n1", "0.13 µg/mL"],
  ["CCNC(=O)Nc1cn2ccc(-c3c(C)noc3C)cc2n1", "> 64 µg/mL"],
  ["CCNC(=O)Nc1nc2cc(-c3cnc(N(C)C)nc3)ccn2c1Cl", "> 32 µg/mL"]
]}

###

Documented melting point across a set of compounds

{"columns": ["entry smiles", "melting point"],
 "data": [
  ["CCNC(=O)Nc1cn2ccc(-c3cnc(OC)nc3)cc2n1", "> 300 °C"],
  ["CCNC(=O)Nc1cn2ccc(-c3cnc(N(C)C)nc3)cc2n1", "259 to 263 °C (dec.)"],
  ["CCNC(=O)Nc1cn2ccc(-c3ccn[nH]3)cc2n1", "292 to 295 °C (dec.)"],
  ["CCOC(=O)Nc1cn2ccc(-c3ccc(OC)nc3)cc2n1", "273 to 279 °C (dec.)"],
  ["CCOC(=O)Nc1cn2ccc(-c3cnc(N(C)C)nc3)cc2n1", "270 to 280 °C (dec.)"],
  ["CCNC(=O)Nc1cn2ccc(-c3ccc(OC)nc3)cc2n1", "222 to 225 °C (dec.)"]
]}

###

What follows is a record of log10 of MIC for Neisseria gonorrhoeae, GC525 (NG-2888).
measured metric: log10 of MIC (log10 of the value in µg/mL)

{"columns": ["molecule", "numeric value"],
 "data": [
  ["CCNC(=O)Nc1cn2ccc(-c3ccc(F)nc3)cc2n1 [Example 46]", 1.20],
  ["CCNC(=O)Nc1cn2c(-c3cnn(C)c3)cc(-c3cccnc3)cc2n1 [Example 23]", -0.89],
  ["CCNC(=O)Nc1cn2c(CO)cc(-c3cccnc3)cc2n1 [Example 7A]", 0.75],
  ["CCNC(=O)Nc1cn2ccc(-c3ccnc(NC(=O)OC(C)(C)C)c3)cc2n1 [Example 37]", 1.81],
  ["CCCNC(=O)Nc1cn2ccc(-c3cncnc3)cc2n1 [Example 29]", 1.20],
  ["O=C(NCC(F)(F)F)Nc1cn2ccc(-c3cncnc3)cc2n1 [Example 31]", 1.81],
  ["CCNC(=O)Nc1cn2ccc(-c3ccc(N4CCN(C)CC4)nc3)cc2n1 [Example 11]", 1.81],
  ["CCNC(=O)Nc1cn2ccc(-c3ccnc(N)c3)cc2n1 [Example 42]", 1.81],
  ["CCNC(=O)Nc1cn2ccc(-c3ccc(N)nc3)cc2n1 [Example 34]", 1.20],
  ["CCNC(=O)Nc1cn2ccc(-c3cnc(OC)nc3)cc2n1 [Example 4]", 1.10],
  ["CCNC(=O)Nc1cn2ccc(-c3cnn(C)c3)cc2n1 [Example 12]", 1.81],
  ["O=C(NCC1CC1)Nc1cn2ccc(-c3cncnc3)cc2n1 [Example 28]", 1.51],
  ["CCNC(=O)Nc1cn2c(C(=O)NCC)cc(-c3cnc(N(C)C)nc3)cc2n1 [Example 50]", 0.30],
  ["CCNC(=O)Nc1cn2ccc(-c3c(C)nn(C(=O)OC(C)(C)C)c3C)cc2n1 [Example 14]", 1.81],
  ["CCNC(=O)Nc1cn2c(-c3nc(C)no3)cc(-c3cccnc3)cc2n1 [Example 45]", -0.60],
  ["CCNC(=O)Nc1cn2ccc(-c3ccnc(OC)c3)cc2n1 [Example 44]", 1.20],
  ["CCNC(=O)Nc1cn2ccc(-c3csnn3)cc2n1 [Example 39]", 1.20],
  ["CCNC(=O)Nc1cn2ccc(-c3nnc(C)o3)cc2n1 [Example 36]", 1.81],
  ["CC(C)NC(=O)Nc1cn2ccc(-c3cncnc3)cc2n1 [Example 30]", 1.51],
  ["O=C(Nc1cn2ccc(-c3cncnc3)cc2n1)NC1CCC1 [Example 33]", 1.20],
  ["CCNC(=O)Nc1cn2ccc(-c3cnn(Cc4ccccc4)c3)cc2n1 [Example 10]", 0.90],
  ["CCNC(=O)Nc1cn2ccc(-c3cncnc3)cc2n1 [Example 8]", 0.75],
  ["CCNC(=O)Nc1cn2ccc(-c3cn[nH]c3)cc2n1 [Example 15]", 1.81],
  ["CCNC(=O)Nc1nc2cc(-c3cccnc3)ccn2c1Cl [Example 16]", 1.81],
  ["CCNC(=O)Nc1cn2ccc(-c3ccc(OCCN4CCOCC4)nc3)cc2n1 [Example 6]", 1.66],
  ["CCNC(=O)Nc1cn2ccc(-c3ccn[nH]3)cc2n1 [Example 38]", 1.51],
  ["CCNC(=O)Nc1cn2ccc(-c3c(C)n[nH]c3C)cc2n1 [Example 25]", 1.81],
  ["O=C(Nc1cn2ccc(-c3cncnc3)cc2n1)NC1CC1 [Example 27]", 1.81]
]}

Source: patent US7563788B2
